Data origin, for the record: paper PMC10058671

# test_description: in vivo
# Parameters: species or system golden hamsters
# condition_context: male, golden, hamster, in vivo, po, 180 mg/kg
reported_metric: Cmax (ng/mL)
Express it in ng/mL; write the number only.

// query Please report the recorded Cmax for COc1ccc2nc3cc(Cl)ccc3c(Nc3cc(CN4CCCC4)c(O)c(CN4CCCC4)c3)c2n1 [Pyronaridine, Pyronaridine tetraphosphate] .
// result 2700

====

# test_description: in vivo
# Set-up: species or system golden hamsters
# condition_context: male, golden, hamster, in vivo, po, 360 mg/kg
reported_metric: AUC at 3 day (ng·h/mL)
Express it in ng·h/mL; write the number only.

// query Please report the recorded AUC at 3 day for COc1ccc2nc3cc(Cl)ccc3c(Nc3cc(CN4CCCC4)c(O)c(CN4CCCC4)c3)c2n1 [Pyronaridine, Pyronaridine tetraphosphate] .
// result 84900

====

# test_description: in vivo
# Set-up: species or system golden hamsters
# condition_context: male, golden, hamster, in vivo, po, 360 mg/kg
reported_metric: AUC at 1 day (ng·h/mL)
Express it in ng·h/mL; write the number only.

// query Please report the recorded AUC at 1 day for COc1ccc2nc3cc(Cl)ccc3c(Nc3cc(CN4CCCC4)c(O)c(CN4CCCC4)c3)c2n1 [Pyronaridine, Pyronaridine tetraphosphate] .
// result 51000
